Consider the following compounds; for each one, report its pIC50.
# Tested on: NCI-H929 cells
# assayDetails: Cell viability assay (NCI-H929 cells), CCK-8
# Format: cell-based
# conditionDescription: Homo sapiens, NCI-H929, 24 h, 5% FBS
Numbers only, as −log10 of the molar value.

See these solved cases before continuing.
Task: Find the recorded pIC50 belonging to C[C@@H]1[C@@H](C)S(=O)(=O)NC(=O)c2ccc3c(c2)N(C[C@@H]2CC[C@H]2[C@@H](OCC(=O)N2CCCCC2)C2=C[C@H]1C2)C[C@@]1(CCCc2c1ccc(Cl)c2F)CO3 [compound 69] and report it.
Result: 7.16

Task: Which pIC50 value belongs to C[C@@H]1[C@@H](C)S(=O)(=O)NC(=O)c2ccc3c(c2)N(C[C@@H]2CC[C@H]2[C@@H](OCCN2CCNC(=O)C2)C2=C[C@H]1C2)C[C@@]1(CCCc2c1ccc(Cl)c2F)CO3 [compound 85] ?
Result: 7.14

Task: Name the recorded pIC50 for CO[C@@]1(CN2C[C@@H](C)N(C)[C@@H](C)C2)C2=C[C@@H](C2)[C@H](C)[C@@H](C)S(=O)(=O)NC(=O)c2ccc3c(c2)N(C[C@@H]2CC[C@H]21)C[C@@]1(CCCc2c1ccc(Cl)c2F)CO3 [compound 40] .
Result: 8.59

Go through the list and state pIC50 for each entry.
1. CO[C@@]1(CN2CCN(C(C)=O)CC2)C2=C[C@@H](C2)[C@H](C)[C@@H](C)S(=O)(=O)NC(=O)c2ccc3c(c2)N(C[C@@H]2CC[C@H]21)C[C@@]1(CCCc2c1ccc(Cl)c2F)CO3 [compound 49]
2. COCCN[C@H]1C2=C[C@@H](C2)[C@H](C)[C@@H](C)S(=O)(=O)NC(=O)c2ccc3c(c2)N(C[C@@H]2CC[C@H]21)C[C@@]1(CCCc2c1ccc(Cl)c2F)CO3 [compound 58]

Result:
1: 7.92; 2: 7.74
